All figures here come from patent US6048854A.

# inhibition in vivo at 0.1 mg/kg per record follows
# Test system: platelet aggregation
# Assay summary: Platelet aggregation inhibitory activity (ex vivo) after oral administration
# Assay type: in vivo
# Conditions: Cavia porcellus, guinea pig, oral 0.1 mg/kg, 4 hrs, ADP 10 μg/ml, read-out: platelet aggregation inhibitory rate (%), 4 hrs
Readout type: inhibition in vivo at 0.1 mg/kg (%)

* Cc1cc(C)c(S(=O)(=O)N[C@@H](CNC(=O)CCCCCc2ccc(C(=N)N)cc2)C(=O)O)c(C)c1 | 47
* N=C(N)c1ccc(C(=O)NCCC(=O)NC[C@H](NS(=O)(=O)c2ccccc2)C(=O)O)cc1 | 100
* COc1ccc(S(=O)(=O)N[C@@H](CNC(=O)CCNC(=O)c2ccc(C(=N)N)cc2)C(=O)O)cc1 | 73
* Cc1cc(C)c(S(=O)(=O)N[C@@H](CNC(=O)CCCCOc2ccc(C(=N)N)cc2)C(=O)O)c(C)c1 | 0
* N=C(N)c1ccc(CCCCC(=O)NC[C@H](NS(=O)(=O)c2ccccc2)C(=O)O)cc1 | 31
* O=C(CCC1CCNCC1)NCCC(=O)NC[C@H](NS(=O)(=O)c1ccccc1)C(=O)O | 32
* Cc1cccc(S(=O)(=O)N[C@@H](CNC(=O)CCNC(=O)c2ccc(C(=N)N)cc2)C(=O)O)c1 | 90
